Hello, the source for this data is patent US20140179681A1, in case you need it.

Assayed target: EGFR (Homo sapiens, UniProt P00533)
Construct: host or cells: A431
Sequence (P00533 25-1210): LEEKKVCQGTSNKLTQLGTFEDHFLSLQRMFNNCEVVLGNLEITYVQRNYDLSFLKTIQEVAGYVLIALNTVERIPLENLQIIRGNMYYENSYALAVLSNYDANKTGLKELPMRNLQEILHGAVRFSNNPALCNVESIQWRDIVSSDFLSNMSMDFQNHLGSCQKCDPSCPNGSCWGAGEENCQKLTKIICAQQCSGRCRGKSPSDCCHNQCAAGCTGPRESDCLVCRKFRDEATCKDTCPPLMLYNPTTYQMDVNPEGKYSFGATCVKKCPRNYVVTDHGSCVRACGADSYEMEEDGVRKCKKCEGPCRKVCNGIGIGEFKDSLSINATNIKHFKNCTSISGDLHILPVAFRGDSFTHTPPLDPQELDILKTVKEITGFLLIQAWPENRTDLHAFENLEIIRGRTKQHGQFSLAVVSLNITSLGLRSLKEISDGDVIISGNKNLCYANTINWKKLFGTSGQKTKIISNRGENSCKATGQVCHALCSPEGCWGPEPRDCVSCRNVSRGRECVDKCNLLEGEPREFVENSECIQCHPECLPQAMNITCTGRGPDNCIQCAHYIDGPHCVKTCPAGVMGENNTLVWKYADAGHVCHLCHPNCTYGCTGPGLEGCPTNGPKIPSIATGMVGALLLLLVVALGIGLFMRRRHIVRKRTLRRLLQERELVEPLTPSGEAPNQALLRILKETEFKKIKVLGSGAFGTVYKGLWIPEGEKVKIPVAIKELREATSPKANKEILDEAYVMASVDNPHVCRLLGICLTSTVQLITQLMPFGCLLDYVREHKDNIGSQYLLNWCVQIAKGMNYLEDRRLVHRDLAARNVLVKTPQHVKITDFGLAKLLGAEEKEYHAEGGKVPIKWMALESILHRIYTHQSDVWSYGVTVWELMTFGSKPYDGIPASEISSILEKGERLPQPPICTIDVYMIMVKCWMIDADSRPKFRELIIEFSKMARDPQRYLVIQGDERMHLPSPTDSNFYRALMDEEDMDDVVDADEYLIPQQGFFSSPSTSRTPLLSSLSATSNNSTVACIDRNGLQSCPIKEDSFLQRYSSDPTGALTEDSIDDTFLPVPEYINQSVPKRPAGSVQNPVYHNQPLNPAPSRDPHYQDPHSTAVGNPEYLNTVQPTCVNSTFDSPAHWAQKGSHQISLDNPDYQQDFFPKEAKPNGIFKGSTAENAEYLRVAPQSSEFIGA
Test summary: EGFR in-cell Western (ICW) screening protocol (EGFR inhibition assay)
Type: cell-based
Design: unit not given here
Run conditions: ICW assay, average of runs 1 and 2
Structures can show the parent of a compound that is named as a salt.
Outcome label depends on ICW Avg relative to 40: at/above gives 1.0, below gives 0.0.

Example cases with answers are listed next.
molecule="Cc1ccc2c(C)nc(Nc3nc(-c4ccccc4)cc(=O)[nH]3)nc2c1 [10381 + TFA]" label_class=1.0
molecule="Cc1cc(C)c2nc(Nc3nc(CSc4ccc(Cl)cc4)cc(=O)[nH]3)nc(C)c2c1 [11726 + TFA]" label_class=0.0
molecule=Cc1cc(C)nc(Nc2nc(-c3ccccc3)c3cc(Cl)ccc3n2)n1 label_class=1.0
molecule="CCOC(=O)c1c(N)nc(Nc2nc(C)c3cc(C)ccc3n2)nc1-c1ccccc1 [compound 12681]" label_class=1.0
molecule="CCc1c(C)[nH]c(Nc2nc(C)c3cc(C)c(C)cc3n2)nc1=O [11809 + TFA]" label_class=0.0

Please examine the following record next.
(Q) Quick check: does Cc1nc(Nc2ncc3c(n2)CC(c2ccco2)CC3=O)nc2ccccc12 (stereo not shown) [11679 + TFA] have ICW Avg greater than or equal to 40?
(A) 0.0

----------
# Lookup of reported log10 IC50 keyed by entry
System: epithelial carcinoma A431 cell line
Test summary: MTT Cell Proliferation Assay, A431 cells
Assay type: cell-based
Run conditions: Homo sapiens, A-431, A431 cells, first value of cell; read-out: MTT Assay IC50(A431/MDBK): A431
Counter-ions that a name gives are not always drawn.
Parameter value (number): base-10 log of IC50 in µM.

Below: 6 molecules and their reported log10 IC50.
molecule="Cc1cc(C)nc(Nc2nc(-c3ccccc3)c3cc(Cl)ccc3n2)n1 [compound 11316]" assayed_target="epithelial carcinoma A431 cell line" test_result=1.65
molecule="Cc1cc2nc(Nc3nc(=O)c(C)c(C)[nH]3)nc(C)c2cc1C [12630 + TFA]" assayed_target="epithelial carcinoma A431 cell line" test_result=1.07
molecule="CCOc1ccc2nc(Nc3ncc4c(n3)CC(c3ccco3)CC4=O)nc(C)c2c1 (centres unmarked) [11674 + TFA]" assayed_target="epithelial carcinoma A431 cell line" test_result=1.31
molecule="Cc1cc(C(F)(F)F)nc(Nc2nc(C)c3ccccc3n2)n1 [compound 11457]" assayed_target="epithelial carcinoma A431 cell line" test_result=1.44
molecule="C=CCc1c(C)nc(Nc2nc(C)c3ccccc3n2)[nH]c1=O [12610 + TFA]" assayed_target="epithelial carcinoma A431 cell line" test_result=1.70
molecule="Cc1ccc2c(C)nc(Nc3nc(-c4ccccc4)cc(=O)[nH]3)nc2c1 [10381 + TFA]" assayed_target="epithelial carcinoma A431 cell line" test_result=0.32

(Q) For the molecule C=CCc1c(C)nc(Nc2nc(C)c3cccc(OC)c3n2)[nH]c1=O [compound 12746] , what log10 IC50 is on record?
(A) 1.25

(Q) For the molecule Cc1nc(Nc2nc(CCC(C)C)cc(=O)[nH]2)nc2ccccc12 [compound 11792] , what log10 IC50 is on record?
(A) 0.73

----------
Assayed target: EGFR (Homo sapiens)
Construct: host or cells: A431
Test summary: EGFR in-cell Western (ICW) screening protocol (EGFR inhibition assay)
Type: cell-based
Set-up: unit not given here
Run conditions: ICW assay, average of runs 1 and 2
Structures can show the parent of a compound that is named as a salt.
Attribute measured: ICW Avg
Enter a number only.

compound="CCCc1cc(=O)[nH]c(Nc2nc(C)c3ccc(OC)cc3n2)n1 [12669 + TFA]" attribute_measured="ICW Avg" test_result=25.42
compound="Cc1ccc2nc(Nc3nc(-c4ccccc4C)cc(=O)[nH]3)nc(C)c2c1 [11785 + TFA]" attribute_measured="ICW Avg" test_result=35.54
compound=Cc1ccc2c(C)nc(Nc3nc(-c4ccccc4C)cc(=O)[nH]3)nc2c1 attribute_measured="ICW Avg" test_result=82.50
compound="COc1ccc(C2CC(=O)c3cnc(Nc4nc(-c5ccccc5)c5ccccc5n4)nc3C2)cc1 (stereo not shown) [11663 + TFA]" attribute_measured="ICW Avg" test_result=26.73
compound="Cc1cc2nc(Nc3nc(=O)c(C)c(C)[nH]3)nc(C)c2cc1C [12630 + TFA]" attribute_measured="ICW Avg" test_result=26.02
compound=Cc1nc(Nc2nc(CSc3nc4ccccc4[nH]3)cc(=O)[nH]2)nc2ccccc12 attribute_measured="ICW Avg" test_result=49.89

Proceed to the following item.
(Q) For the compound CCCc1c(C)nc(Nc2nc(C)c3cccc(C)c3n2)[nH]c1=O [12625 + TFA] , what ICW Avg is on record?
(A) 34.27
